assay: Part B multiple-ascending-dose plasma PK in healthy subjects; assay type: in vivo, human; settings: human, plasma, iv, 0.5 g, part B cohort 10 (4 subjects), 0.5 g q6h 3-h i.v. infusion, day 1; read-out: AUC0–tau
quantityKind: AUC (ng·h/mL)

INSERT INTO results (recordsmiles, outputunit, resultvalue) VALUES
  ('CC1=C[C@@H]2CN(C(=O)N2OS(=O)(=O)O)[C@@H]1C(N)=O', 'ng·h/mL', 50300);

* * *

experiment: Part B multiple-ascending-dose plasma PK in healthy subjects; format: in vivo, human; settings: human, plasma, iv; part B cohort 12, 2.0 g q6h 3-h i.v. infusion, day 8; read-out: Vss
quantityKind: Vd

INSERT INTO assay_data (recordsmiles, quantitykind, resultvalue) VALUES
  ('CC1=C[C@@H]2CN(C(=O)N2OS(=O)(=O)O)[C@@H]1C(N)=O', 'Vd', '21.8 L');
